Data origin, for the record: paper PMC3954757

# target: p38α MAPK (Homo sapiens)
# Sequence (Q16539 whole entry): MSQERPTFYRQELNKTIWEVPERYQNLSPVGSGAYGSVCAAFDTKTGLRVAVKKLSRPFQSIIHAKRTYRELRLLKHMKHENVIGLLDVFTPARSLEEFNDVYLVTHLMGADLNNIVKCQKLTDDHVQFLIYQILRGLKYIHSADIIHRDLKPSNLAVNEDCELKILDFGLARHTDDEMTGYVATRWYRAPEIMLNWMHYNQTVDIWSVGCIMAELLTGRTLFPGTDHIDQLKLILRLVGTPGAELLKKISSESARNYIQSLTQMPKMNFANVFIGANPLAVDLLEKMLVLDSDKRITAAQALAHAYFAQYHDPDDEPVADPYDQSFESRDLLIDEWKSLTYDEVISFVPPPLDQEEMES
# experimentalDetails: p38α MAPK activity, nonradioactive immunosorbent assay
# Format: biochemical
testReadout: inhibition at 10 µM (%)
Respond with the bare value in %.

Here are 3 compounds together with their reported answers.
>  <structureSmiles>
O=C(CNc1c(-c2ccccc2)nc2ccccn12)N/N=C/c1ccc(OCCN2CCOCC2)cc1

>  <unitSpec>
%

>  <quantitativeReadout>
22.6

$$$$
>  <structureSmiles>
O=C(CNc1c(-c2ccccc2)nc2ccccn12)N/N=C/c1cccc2ccccc12

>  <unitSpec>
%

>  <quantitativeReadout>
17.2

$$$$
>  <structureSmiles>
CC(C)(C)c1nc2ccccn2c1NCC(=O)N/N=C/c1ccc(OCCN2CCOCC2)c2ccccc12

>  <unitSpec>
%

>  <quantitativeReadout>
11.8

$$$$

Below: the item to evaluate.
Q: What value of inhibition at 10 µM has been recorded for this entry: O=C(CNc1c(-c2ccccc2)nc2ccccn12)N/N=C/c1ccc(OCCN2CCOCC2)c2ccccc12
Ans: 6.5

====

// reported viability at 20 h, 10 µM for each item listed
# experimentalDetails: Cell viability by MTT assay
# Format: cell-based, mouse
# assayContext: mouse, peritoneal macrophages; 10 µM; MTT; compared to vehicle (DMSO)
# Method: The peritoneal macrophage were obtained and plated as described above. The cells were incubated with the vehicle or compounds for 20 hours when was added 200 µL of RPMI medium containing 0.5 mg/mL MTT […] (3-(4,5-dimethylthiazol-2-yl)-2,5-diphenyltetrazolium bromide) followed by 4 hour of incubation at 37°C in a 5% CO2 atmosphere. […] The optical density was measured in a microplate reader at 490 nm. […] Results are expressed as percentage of viable cells when compared with control groups.
Respond with the bare value in %.

Q: What value of viability at 20 h, 10 µM has been recorded for this entry: CC(C)(C)c1nc2ccccn2c1NCC(=O)N/N=C/c1ccc(OCCN2CCOCC2)cc1 [Compound 1h]
Ans: 100

Q: What value of viability at 20 h, 10 µM has been recorded for this entry: CC(C)(C)c1cc(NCC(=O)N/N=C/c2ccc(OCCN3CCOCC3)c3ccccc23)n(-c2ccccc2)n1 [LASSBio-1504 (2), reference compound]
Ans: 61.5

Q: What value of viability at 20 h, 10 µM has been recorded for this entry: CC(C)(C)c1nc2ccccn2c1NCC(=O)N/N=C/c1ccccc1 [Compound 1g]
Ans: 100

Q: What value of viability at 20 h, 10 µM has been recorded for this entry: CC(C)(C)c1nc2ccccn2c1NCC(=O)N/N=C/c1ccc(Cl)cc1 [Compound 1i]
Ans: 73.3

Q: What value of viability at 20 h, 10 µM has been recorded for this entry: O=C(CNc1c(-c2ccccc2)nc2ccccn12)N/N=C/c1cccc2ccccc12 [Compound 1k]
Ans: 83.2

====

// reported melting point for each item listed

Here are 7 compounds together with their reported answers.
>  <structureSmiles>
O=C(CNc1c(-c2ccccc2)nc2ccccn12)N/N=C/c1ccc(O)cc1

>  <melting point>
273 to 275 °C

$$$$
>  <structureSmiles>
O=C(CNc1c(-c2ccccc2)nc2ccccn12)N/N=C/c1ccc(O)c2ccccc12

>  <melting point>
> 300 °C

$$$$
>  <structureSmiles>
O=C(CNc1c(-c2ccccc2)nc2ccccn12)N/N=C/c1ccc(OCCN2CCOCC2)c2ccccc12

>  <melting point>
105 to 108 °C

$$$$
>  <structureSmiles>
O=C(CNc1c(-c2ccccc2)nc2ccccn12)N/N=C/c1ccccc1

>  <melting point>
138 to 141 °C

$$$$
>  <structureSmiles>
CC(C)(C)c1nc2ccccn2c1NCC(=O)N/N=C/c1ccc(OCCN2CCOCC2)c2ccccc12

>  <melting point>
135 to 137 °C

$$$$
>  <structureSmiles>
O=C(CNc1c(-c2ccccc2)nc2ccccn12)N/N=C/c1cccc2ccccc12

>  <melting point>
208 to 210 °C

$$$$
>  <structureSmiles>
CC(C)(C)c1nc2ccccn2c1NCC(=O)N/N=C/c1ccc(Cl)cc1

>  <melting point>
232 to 234 °C

$$$$

Q: What value of melting point has been recorded for this entry: CC(C)(C)c1nc2ccccn2c1NCC(=O)N/N=C/c1ccccc1
Ans: 230 to 232 °C
